- ASSAY DETAILS: clinical
- ASSAY SETUP: male, human, plasma, intravenous, 500 mg
PROPERTY NAME: AUC(0-inf)

[Q] Please give the measured AUC(0-inf) for this compound: C[C@@H](O)[C@H]1C(=O)N2C(C(=O)O)=C(SCCN=CN)C[C@H]12
[A] 140 µM·h

###

- ASSAY SETUP: male, human, in vivo, AUC0-6, 50 mg relebactam + 500 mg imipenem/cilastatin, panel C, day 1
PROPERTY NAME: AUC(0-t) (µM·h)
Numbers only, in µM·h.

[Q] Please give the measured AUC(0-t) for this compound: CC1(C)C[C@@H]1C(=O)N/C(=C\CCCCSC[C@H](N)C(=O)O)C(=O)O
[A] 127

###

- ASSAY DETAILS: clinical
- ASSAY SETUP: male, human, plasma, intravenous, 500 mg
PROPERTY NAME: concentration at 30 min (µM)
Answers are plain numbers, in µM.

[Q] Please give the measured concentration at 30 min for this compound: C[C@@H](O)[C@H]1C(=O)N2C(C(=O)O)=C(SCCN=CN)C[C@H]12
[A] 102

###

- ASSAY DETAILS: Plasma pharmacokinetics, single dose as 30-min i.v. infusion, study 1 part I, healthy men;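 note: plasma analyte levels quantified by HILIC with tandem mass spectrometry, parameters derived noncompartmentally in WinNonlin, AUC by linear-up log-down trapezoidal rule, clearance taken as dose over AUC0–∞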
- ASSAY SETUP: male, human, plasma, intravenous, 50 mg, CL, relebactam 50 mg alone, single dose
PROPERTY NAME: clearance (mL/min)
Give bare numbers, in mL/min.

[Q] Please give the measured clearance for this compound: O=C(NC1CCNCC1)[C@@H]1CC[C@@H]2CN1C(=O)N2OS(=O)(=O)O [Relebactam]
[A] 157
